Where do the numbers come from? From the RNAGym collection of RNA variant scans (doi:10.1073/pnas.2313332121).

B1: TPR t1 (parent)
chain: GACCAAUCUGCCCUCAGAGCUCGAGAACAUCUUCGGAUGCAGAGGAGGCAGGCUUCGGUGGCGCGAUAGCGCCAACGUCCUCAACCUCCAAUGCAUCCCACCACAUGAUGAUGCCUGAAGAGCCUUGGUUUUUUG

- Variants of: B1
- run description: polymerase ribozyme fitness, log enrichment relative to wild type (log ratio); higher = more active; in vitro selection for triplet polymerase activity
recorded endpoint: polymerase ribozyme fitness (log ratio)
I'd appreciate a reply containing only the number, no unit.

Sure, the documented polymerase ribozyme fitness (log ratio) for A43C A46G is -1.62

Sure, the documented polymerase ribozyme fitness (log ratio) for C73U U96A A108G C114A is -5.25

Sure, the documented polymerase ribozyme fitness (log ratio) for G63A G117U is -3.18

Sure, the documented polymerase ribozyme fitness (log ratio) for C13A G19U C82A U87G G120A is -3.21

Sure, the documented polymerase ribozyme fitness (log ratio) for A18U C20G G61A is -6.8

Sure, the documented polymerase ribozyme fitness (log ratio) for G39U C123A is -0.855

Sure, the documented polymerase ribozyme fitness (log ratio) for C8U C70G U78C G113A A121G is -3.57

Sure, the documented polymerase ribozyme fitness (log ratio) for C114G G128U U129A is -5.24

Sure, the documented polymerase ribozyme fitness (log ratio) for G117A U129G is -4.37

Sure, the documented polymerase ribozyme fitness (log ratio) for A105U G110U is -6.12

Sure, the documented polymerase ribozyme fitness (log ratio) for C3G G39A G51U G69U C79A U130G is -3

Sure, the documented polymerase ribozyme fitness (log ratio) for C13A G48A G61A U106A A118G is -2.04

Sure, the documented polymerase ribozyme fitness (log ratio) for C34U G63C is -3.94

Sure, the documented polymerase ribozyme fitness (log ratio) for C11A C73U C76A U78G U131A is -4.06

Sure, the documented polymerase ribozyme fitness (log ratio) for A43G A66G is -4.35

Sure, the documented polymerase ribozyme fitness (log ratio) for C11U C12G C15U C70U is -1.83
